B1: TPR 5TU (parent)
chain: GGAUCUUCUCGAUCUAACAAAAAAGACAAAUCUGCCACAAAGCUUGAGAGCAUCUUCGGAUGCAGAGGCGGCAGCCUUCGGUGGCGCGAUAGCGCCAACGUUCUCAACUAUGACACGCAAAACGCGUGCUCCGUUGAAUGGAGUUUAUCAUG

# Variants of: B1
# protocolDetails: polymerase ribozyme fitness, log enrichment relative to wild type (log ratio); higher = more active; in vitro selection for triplet polymerase activity
This sample holds only a part of the variants without activity.
Note to self: values exactly at -2 are y. So polymerase ribozyme fitness (log ratio) at or above -2 is y, below is n.

Please review the entries below; each comes with its answer.
INSERT INTO results (mutantname, labelclass) VALUES
  ('A12U U56G A89G C93A A113G', 'n'),
  ('U4A A21U C38U C85A C87G C103A', 'n'),
  ('A47G G58C G65A G141U', 'y'),
  ('A16C A20C A39U G42C C76A C95A', 'n');

Say whether U13A A22U U53A G62C A64U U90A A91C C103A A106G C108U G126C shows polymerase ribozyme fitness (log ratio) of -2 or more.
n

Say whether A41C C95A shows polymerase ribozyme fitness (log ratio) of -2 or more.
y

Say whether G88U C108A shows polymerase ribozyme fitness (log ratio) of -2 or more.
n

Say whether U55G A73U A122G G126C shows polymerase ribozyme fitness (log ratio) of -2 or more.
y

Say whether A60U C69A shows polymerase ribozyme fitness (log ratio) of -2 or more.
y

Say whether G59C C95A shows polymerase ribozyme fitness (log ratio) of -2 or more.
y

Say whether C57A A89C G94U A142G shows polymerase ribozyme fitness (log ratio) of -2 or more.
n
